This collection of values is drawn from patent US12139488B2.

Tested on: pERK in HCT-116 cells (KRAS G13D)
Experiment: Phospho-ERK inhibition (AlphaLISA SureFire Ultra p-ERK 1/2), HCT116
Assay type: cell-based, human
Conditions: HCT116 cells; Ymin in brackets
readout: HCT116 pERK Ymin % (%)
Give just the number in %; leave the unit off.

Ask: Any idea what its HCT116 pERK Ymin % is? The molecule is `O=S(=O)(Nc1ccc(F)c(Nc2ncnc3ccc(-n4cnc5c(CN6CCC6)cccc54)nc23)c1F)c1ccccc1Cl`
Result: −6

Ask: Item under review: `COc1ccc(S(=O)(=O)Nc2ccc(F)c(Nc3ncnc4ccc(-c5ccc(OC)nc5)nc34)c2F)c(C)c1` . Reported HCT116 pERK Ymin %?
Result: −4

Ask: State the recorded HCT116 pERK Ymin % for this entry: `COC1CN(Cc2cccc3c2ncn3-c2ccc3ncnc(Nc4c(F)ccc(NS(=O)(=O)c5ccccc5Cl)c4F)c3n2)C1`
Result: −9

Ask: For `Cc1c(Cl)cccc1S(=O)(=O)Nc1ccc(F)c(Nc2ncnc3ccc(-n4nc(C(=O)N5CCNCC5)c5ccccc54)nc23)c1F` , what is its reported HCT116 pERK Ymin %?
Result: −1.2

Ask: Entry under review: `CCCNc1cccc2c1ncn2-c1ccc2ncnc(Nc3c(F)ccc(NS(=O)(=O)c4cccc(Cl)c4Cl)c3F)c2n1` . Reported HCT116 pERK Ymin %?
Result: −7.4

Ask: Could you tell me which HCT116 pERK Ymin % is on file for `COc1ccc(S(=O)(=O)Nc2ccc(F)c(Nc3ncnc4ccc(-c5cnn6ccccc56)nc34)c2F)c(C)c1` ?
Result: 5

Ask: Entry under review: `O=S(=O)(Nc1ccc(F)c(Nc2ncnc3ccc(-n4cnc5c(CN6CCCC6)cccc54)nc23)c1F)c1ccccc1Cl` . Reported HCT116 pERK Ymin %?
Result: 0

Ask: Reported HCT116 pERK Ymin % for `NCc1cccc2c1ncn2-c1ccc2ncnc(Nc3c(F)ccc(NS(=O)(=O)c4ccccc4Cl)c3F)c2n1` : what is it?
Result: −9

Ask: Look up HCT116 pERK Ymin %: `N#Cc1ccc(-c2ccc3ncnc(Nc4c(F)ccc(NS(=O)(=O)c5ccccc5Cl)c4F)c3n2)cc1`
Result: −9

Ask: Value lookup for HCT116 pERK Ymin %; key = `COc1ccc(S(=O)(=O)Nc2ccc(F)c(Nc3ncnc4ccc(-n5cnc6c([N+](=O)[O-])cccc65)nc34)c2F)c(C)c1`
Result: −3

Ask: Any idea what HCT116 pERK Ymin % was measured for `O=C(Nc1cccc2c1ncn2-c1ccc2ncnc(Nc3c(F)ccc(NS(=O)(=O)c4ccccc4Cl)c3F)c2n1)N1CCOCC1` ?
Result: 8.5

Ask: Entry `O=S(=O)(Nc1ccc(F)c(Nc2ncnc3ccc(-n4cnc5c(CN6CCOCC6)cccc54)nc23)c1F)c1ccccc1Cl` : reported HCT116 pERK Ymin % = ?
Result: −1.7

Ask: Query (molecule): `O=S(=O)(Nc1ccc(F)c(Nc2ncnc3ccc(-n4nc(-c5ncc[nH]5)c5ccccc54)nc23)c1F)c1cccc(Cl)c1Cl` ; field requested: HCT116 pERK Ymin %
Result: −13

Ask: Would you mind telling me what HCT116 pERK Ymin % value was observed for `COc1ccc(S(=O)(=O)Nc2ccc(F)c(Nc3ncnc4ccc(-c5cncnc5)nc34)c2F)c(C)c1` ?
Result: −9
